# Lookup of reported MIC keyed by entry
Test system: Candida albicans
PROTOCOL DESCRIPTION: MIC values of active ingredients (in nutrient liquid)
Type: cell-based
CONDITION: Table I
Method: For fungi: Sabouraud nutrient liquid containing glucose, […] digested casein and water. The experiments are carried out in an ambience free of germs. […] The following compounds were tested: azithromycin, clarithromycin, erythromycin, miconazole, […]-sulphate. Test organisms: Bacteria: Escherichia coli, Pseudomonas aeruginosa, Serratia marcescens, Staphylococcus aureus, Streprococcus pyogenes. […] Following preparation of the inoculum and incubation the MIC values were determined according to the above.

Reference set, count: 3
COMPOUND	MEASURED TARGET	MEAS VALUE
CC[C@H]1OC(=O)[C@H](C)[C@@H](O[C@H]2C[C@@](C)(OC)[C@@H](O)[C@H](C)O2)[C@H](C)[C@@H](O[C@@H]2O[C@H](C)C[C@H](N(C)C)[C@H]2O)[C@](C)(O)C[C@@H](C)CN(C)[C@H](C)[C@@H](O)[C@]1(C)O [azithromycin]	Candida albicans	> 500 µg/mL
Clc1ccc(COC(Cn2ccnc2)c2ccc(Cl)cc2Cl)c(Cl)c1 (stereo not shown) [miconazole]	Candida albicans	0.5 µg/mL
CC[C@H]1OC(=O)[C@H](C)[C@@H](O[C@H]2C[C@@](C)(OC)[C@@H](O)[C@H](C)O2)[C@H](C)[C@@H](O[C@@H]2O[C@H](C)C[C@H](N(C)C)[C@H]2O)[C@](C)(OC)C[C@@H](C)C(=O)[C@H](C)[C@@H](O)[C@]1(C)O [clarithromycin]	Candida albicans	> 100 µg/mL

Input line: Return the recorded MIC value; entry: CC[C@H]1OC(=O)[C@H](C)[C@@H](O[C@H]2C[C@@](C)(OC)[C@@H](O)[C@H](C)O2)[C@H](C)[C@@H](O[C@@H]2O[C@H](C)C[C@H](N(C)C)[C@H]2O)[C@](C)(O)C[C@@H](C)C(=O)[C@H](C)[C@@H](O)[C@]1(C)O [erythromycin]
Output line: > 500 µg/mL

---

Test system: Candida parapsilosis
PROTOCOL DESCRIPTION: MIC values of active ingredients (in nutrient liquid)
Format: cell-based
CONDITION: Lodderomyces parapsilosis, Table I
# Lookup of reported MIC keyed by entry
Write it as a number; the unit µg/mL goes unstated.

MOLECULE	MEAS VALUE
CC[C@H]1OC(=O)[C@H](C)[C@@H](O[C@H]2C[C@@](C)(OC)[C@@H](O)[C@H](C)O2)[C@H](C)[C@@H](O[C@@H]2O[C@H](C)C[C@H](N(C)C)[C@H]2O)[C@](C)(O)C[C@@H](C)C(=O)[C@H](C)[C@@H](O)[C@]1(C)O	500
Clc1ccc(COC(Cn2ccnc2)c2ccc(Cl)cc2Cl)c(Cl)c1 (stereo not shown)	0.2

Input line: Return the recorded MIC value; entry: `CC[C@H]1OC(=O)[C@H](C)[C@@H](O[C@H]2C[C@@](C)(OC)[C@@H](O)[C@H](C)O2)[C@H](C)[C@@H](O[C@@H]2O[C@H](C)C[C@H](N(C)C)[C@H]2O)[C@](C)(O)C[C@@H](C)CN(C)[C@H](C)[C@@H](O)[C@]1(C)O`
Output line: 500
